test system: Erythrocyte; test: Hemolytic activity in human RBC incubated for 4 hrs by visual analysis; assay type: toxicity, cell-based
Listed next: entries and their corresponding MHC.

compound.structure.string: CC(C)C[C@H](NC(=O)[C@H](CC(C)C)NC(=O)[C@@H](CCCCN)NC(=O)[C@H](CC(C)C)NC(=O)[C@H](CC(C)C)NC(=O)[C@@H](CCCCN)NC(=O)[C@@H](CC(C)C)NC(=O)[C@H](CC(C)C)NC(=O)[C@H](CCCCN)NC(=O)[C@@H](N)CCCCN)C(=O)N[C@H](CC(C)C)C(N)=O
observed.property: MHC
reported.measurement: > 2000 µg/mL

# context switch: different molecule, same MHC
What value of MHC has been recorded for this entry: "CC(C)C[C@H](NC(=O)[C@@H](CC(C)C)NC(=O)[C@H](CC(C)C)NC(=O)[C@@H](CCCCN)NC(=O)[C@H](CC(C)C)NC(=O)[C@@H](CC(C)C)NC(=O)[C@H](CCCCN)NC(=O)[C@@H](CC(C)C)NC(=O)[C@H](CC(C)C)NC(=O)[C@@H](CCCCN)NC(=O)[C@@H](N)CCCCN)C(N)=O"
> 2000 µg/mL
